# System: Candida albicans
# experiment.notes: Antifungal activity against Candida albicans ATCC 10231 after 48 hrs by M27-A3 CLSI method
# Assay type: functional
# setup.conditions: ATCC 10231, 48 h
Param label: returns 1 (yes) when MIC < 8 µg/mL, returns 0 (no) otherwise, including exact equality.

Recorded results for 5 compounds are shown here.
CC(C)c1ccc(NC(=O)OC(Cn2ccnc2)c2ccccc2)cc1 (racemic) = 0 (no)
CC(C)c1ccc(NC(=O)OC(Cn2ccnc2)c2ccc(F)cc2)cc1 (racemic) = 1 (yes)
O=C(OC(Cn1ccnc1)c1ccccc1)c1ccc(-c2ccccc2)cc1 (racemic) = 1 (yes)
OC(Cn1ccnc1)c1ccc(F)cc1 (racemic) = 0 (no)
O=C(COc1ccccc1)OC(Cn1ccnc1)c1ccc(Cl)cc1 (racemic) = 1 (yes)

Exam item: hey, is MIC for OC(Cn1ccnc1)c1ccccc1 (racemic) lower than 8 µg/mL or not?
Marked response: 0 (no)

Exam item: Regarding OC(Cn1ccnc1)c1ccc(Cl)cc1 (racemic) , kindly confirm whether its MIC is beneath 8 µg/mL.
Marked response: 0 (no)

====

# System: Candida parapsilosis
# experiment.notes: Antifungal activity against Candida parapsilosis after 48 hrs by M27-A3 CLSI method
# Format: functional
# setup.conditions: Lodderomyces parapsilosis
endpoint.name: MIC (µg/mL)
Answers are plain numbers, in µg/mL.

Some molecules with known MIC results, for comparison:
O=C(OC(Cn1ccnc1)c1ccccc1)c1ccc(-c2ccccc2)cc1 (racemic) = 0.7
OC(Cn1cncn1)(Cn1cncn1)c1ccc(F)cc1F = 1.6
O=C(OC(Cn1ccnc1)c1ccc(F)cc1)c1ccc(-c2ccccc2)cc1 (racemic) = 1.3

Short answer for O=C(OC(Cn1ccnc1)c1ccc(Cl)cc1)c1ccc(-c2ccccc2)cc1 (racemic) : MIC was 1.05

====

Hi there, I'd appreciate the recorded MIC for every entry that follows.
# Test system: Candida parapsilosis
# experiment.notes: Antifungal activity against Candida parapsilosis DSM 11224 after 48 hrs by M27-A3 CLSI method
# Assay type: functional
# setup.conditions: Lodderomyces parapsilosis, DSM 11224, 48 h; read-out: MIC
Answers are plain numbers, in µg/mL.

Solved entries (count: 3):
O=C(OC(Cn1ccnc1)c1ccc(Cl)cc1)c1ccc(-c2ccccc2)cc1 (racemic) = 0.25
Cl.O=C(OC(Cn1ccnc1)c1ccc(F)cc1)c1cccc(C(F)(F)F)c1 (racemic; 4b) = 8
OC(Cn1ccnc1)c1ccc(Cl)cc1 (racemic) = 64

MIC recorded for this compound, O=C(OC(Cn1ccnc1)c1ccc(F)cc1)c1cccc(C(F)(F)F)c1 (racemic; 3b) , is 4

====

# Tested on: Candida albicans
# experiment.notes: Antifungal activity against Candida albicans ATCC 10231 after 48 hrs by M27-A3 CLSI method
# Assay type: functional
# setup.conditions: ATCC 10231, 48 h
endpoint.name: MIC (µg/mL)
Numbers only, in µg/mL.

For orientation, consider the following solved cases.
CC(C)c1ccc(NC(=O)OC(Cn2ccnc2)c2ccc(Cl)cc2)cc1 (racemic) = 4
O=C(OC(Cn1ccnc1)c1ccc(F)cc1)c1cccc(C(F)(F)F)c1 (racemic; 3b) = 8

Could you report MIC for every entry in the following list?
1. OC(Cn1cncn1)(Cn1cncn1)c1ccc(F)cc1F
2. O=C(OC(Cn1ccnc1)c1ccccc1)c1cccc(C(F)(F)F)c1 (racemic)
3. O=C(OC(Cn1ccnc1)c1ccc(Cl)cc1)c1ccc(-c2ccccc2)cc1 (racemic)

Marked response:
1: 2; 2: 32; 3: 1
